# TARGET ENTITY: Muscarinic acetylcholine receptor M2 (Homo sapiens); also: assay procedure not described here
# Sequence (P08172 whole entry): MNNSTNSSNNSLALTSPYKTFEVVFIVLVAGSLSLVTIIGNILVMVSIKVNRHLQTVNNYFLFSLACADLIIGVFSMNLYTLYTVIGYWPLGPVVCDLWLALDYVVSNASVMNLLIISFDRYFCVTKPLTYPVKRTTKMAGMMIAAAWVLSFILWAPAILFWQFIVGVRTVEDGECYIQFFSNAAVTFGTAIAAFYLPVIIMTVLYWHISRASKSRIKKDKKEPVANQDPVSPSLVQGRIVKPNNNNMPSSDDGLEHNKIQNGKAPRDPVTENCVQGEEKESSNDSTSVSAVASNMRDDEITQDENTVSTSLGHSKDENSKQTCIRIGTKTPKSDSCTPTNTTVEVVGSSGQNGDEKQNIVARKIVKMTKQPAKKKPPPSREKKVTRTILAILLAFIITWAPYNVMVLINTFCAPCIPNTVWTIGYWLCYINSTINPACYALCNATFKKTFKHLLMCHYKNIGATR
# Format: functional, cell-based
PROPERTY MEASURED: AC50

Sample CCC1(c2ccc(N)cc2)CCC(=O)NC1=O (stereo not drawn) [AMINOGLUTETHIMIDE] — what was its AC50?
> 30 µM

Field entry: CCCN1CC(NS(=O)(=O)N(CC)CC)CC2Cc3c(O)cccc3CC21 (stereo not drawn) [QUINAGOLIDE]
> 30 µM

Field entry: NS(=O)(=O)c1cc2c(cc1Cl)N=C(CSCc1ccccc1)NS2(=O)=O [BENZTHIAZIDE]
> 10 µM

Field entry: CN(C)C/C=C/C(=O)Nc1cc2c(Nc3ccc(F)c(Cl)c3)ncnc2cc1O[C@H]1CCOC1 [AFATINIB]
23 µM

Field entry: O=C(c1cc(Cc2n[nH]c(=O)c3ccccc23)ccc1F)N1CCN(C(=O)C2CC2)CC1 [OLAPARIB]
> 10 µM

Field entry: CC(C)Cc1ccc([C@H](C)C(=O)O)cc1 [DEXIBUPROFEN]
> 30 µM

Field entry: O=C1OC(OC(=O)c2cccnc2Nc2cccc(C(F)(F)F)c2)c2ccccc21 (stereo not drawn) [TALNIFLUMATE]
> 30 µM

Field entry: C=CC[N+]1([C@H]2C[C@H]3[C@@H]4CC[C@H]5C[C@H](O)[C@@H](N6CCOCC6)C[C@]5(C)[C@H]4CC[C@]3(C)[C@H]2OC(C)=O)CCCC1 [ROCURONIUM]
> 30 µM

----------
I'd be grateful if you could share measured AC50 for these entries.
# TARGET ENTITY: Sodium-dependent noradrenaline transporter (Homo sapiens, UniProt P23975); also: assay procedure not described here
# Sequence (P23975 whole entry): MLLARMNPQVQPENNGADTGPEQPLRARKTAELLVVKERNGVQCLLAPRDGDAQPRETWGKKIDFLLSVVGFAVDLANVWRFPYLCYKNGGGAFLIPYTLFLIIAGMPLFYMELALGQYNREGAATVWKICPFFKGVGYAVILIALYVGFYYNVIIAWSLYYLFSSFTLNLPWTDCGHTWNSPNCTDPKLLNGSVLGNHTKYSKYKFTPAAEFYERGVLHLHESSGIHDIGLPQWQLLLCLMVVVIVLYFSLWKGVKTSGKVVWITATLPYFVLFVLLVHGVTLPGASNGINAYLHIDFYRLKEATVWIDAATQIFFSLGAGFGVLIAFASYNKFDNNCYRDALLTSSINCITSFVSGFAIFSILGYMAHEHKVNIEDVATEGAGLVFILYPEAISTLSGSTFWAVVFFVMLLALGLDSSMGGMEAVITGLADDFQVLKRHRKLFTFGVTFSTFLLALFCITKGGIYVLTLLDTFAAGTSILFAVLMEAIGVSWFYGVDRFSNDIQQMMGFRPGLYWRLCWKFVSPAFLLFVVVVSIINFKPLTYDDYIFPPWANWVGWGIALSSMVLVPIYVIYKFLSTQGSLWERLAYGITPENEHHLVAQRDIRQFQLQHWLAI
Where a SMILES comes first, the peptide text is derived from it. [ ]: non-standard residue; d: D form. pGlu = O=C1CC[C@@H](C(=O)O)N1; Thz = O=C(O)[C@@H]1CSCN1

Sample CCCCOc1ccc(C(=O)CCN2CCCCC2)cc1 [DYCLONINE] — what was its AC50?
2.3 µM

Field entry: NC(=O)NC(=O)Cc1ccccc1 [PHENACEMIDE]
> 10 µM

Field entry: COc1ccc2cc(CCC(C)=O)ccc2c1 [NABUMETONE]
20 µM

Field entry: O=C(/C=C/c1cccc(S(=O)(=O)Nc2ccccc2)c1)NO [BELINOSTAT]
> 10 µM

Field entry: COc1ccc(CN2CCN(C(c3ccc(F)cc3)c3ccc(F)cc3)CC2)c(OC)c1OC [LOMERIZINE]
18 µM

Field entry: Clc1ccc(Cn2c(CN3CCCC3)nc3ccccc32)cc1 [CLEMIZOLE]
> 30 µM

Field entry: O=C(NCCO[N+](=O)[O-])c1cccnc1 [NICORANDIL]
> 30 µM

Field entry: COc1cc(C(=O)OCc2cccc(COC(=O)c3cc(OC)c(OC)c(OC)c3)n2)cc(OC)c1OC [PIROZADIL]
> 30 µM

Field entry: C=CC[N+]1([C@H]2C[C@H]3[C@@H]4CC[C@H]5C[C@H](O)[C@@H](N6CCOCC6)C[C@]5(C)[C@H]4CC[C@]3(C)[C@H]2OC(C)=O)CCCC1 [ROCURONIUM]
> 30 µM

Field entry: CCN1CC(CCN2CCOCC2)C(c2ccccc2)(c2ccccc2)C1=O (stereo not drawn) [DOXAPRAM]
> 30 µM

Field entry: CCCN1CCCC[C@H]1C(=O)Nc1c(C)cccc1C [ROPIVACAINE]
> 30 µM

Field entry: CC(CN(C)C)C(C)(O)Cc1ccc(Cl)cc1 (stereo not drawn) [CLOBUTINOL]
> 30 µM

Field entry: C[C@]12C/C(=C/O)C(=O)C[C@@H]1CC[C@@H]1[C@@H]2CC[C@@]2(C)[C@H]1CC[C@]2(C)O [OXYMETHOLONE]
> 30 µM

Field entry: COc1cc(N)c(Cl)cc1C(=O)NC1CCN(CCCOc2ccc(F)cc2)CC1OC (stereo not drawn) [CISAPRIDE]
> 30 µM

Field entry: Cc1onc(-c2c(F)cccc2Cl)c1C(=O)N[C@@H]1C(=O)N2[C@@H]1SC(C)(C)[C@@H]2C(=O)O [FLOXACILLIN]
> 30 µM

Field entry: O=C(O)c1ccc(NC(=O)[C@H](Cc2ccc(O)cc2)NC(=O)c2ccccc2)cc1 [BENTIROMIDE]
> 10 µM

Field entry: CC1=C(/C=C/C(C)=C/C=C/C(C)=C/CO)C(C)(C)CCC1 [RETINOL]
> 10 µM

Field entry: O=C1CC[C@@H](C(=O)N2CSC[C@H]2C(=O)O)N1 [PIDOTIMOD] ([pGlu]-[Thz]-OH)
> 30 µM

----------
# TARGET ENTITY: 5-hydroxytryptamine receptor 2B (Homo sapiens); also: assay procedure not described here
# Sequence (P41595 whole entry): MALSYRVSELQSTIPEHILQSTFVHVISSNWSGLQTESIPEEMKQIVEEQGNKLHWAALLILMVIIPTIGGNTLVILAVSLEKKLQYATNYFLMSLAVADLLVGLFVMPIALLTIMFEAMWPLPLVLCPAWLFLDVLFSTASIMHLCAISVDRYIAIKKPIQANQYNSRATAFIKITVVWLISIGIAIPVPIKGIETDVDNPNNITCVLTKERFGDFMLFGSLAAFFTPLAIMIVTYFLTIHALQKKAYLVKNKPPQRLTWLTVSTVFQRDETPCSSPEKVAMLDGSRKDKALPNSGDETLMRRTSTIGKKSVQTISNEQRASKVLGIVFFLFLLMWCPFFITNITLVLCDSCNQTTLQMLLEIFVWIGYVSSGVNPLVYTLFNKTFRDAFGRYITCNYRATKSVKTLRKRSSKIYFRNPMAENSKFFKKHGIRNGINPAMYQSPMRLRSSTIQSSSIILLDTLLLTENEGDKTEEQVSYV
# Type: functional, cell-based
I'd be grateful if you could share measured AC50 for these entries.

Sample O=C(NCCO[N+](=O)[O-])c1cccnc1 — what was its AC50?
> 30 µM

Field entry: CCOC(=O)C(C)(C)Oc1ccc(Cl)cc1 [CLOFIBRATE]
> 10 µM

Field entry: COC(=O)[C@H]1[C@H]2C[C@@H]3c4[nH]c5cc(OC)ccc5c4CCN3C[C@H]2C[C@@H](OC(=O)c2cc(OC)c(OC)c(OC)c2)[C@@H]1OC
> 10 µM

Field entry: Cc1cc(=O)n(-c2ccccc2)n1C [ANTIPYRINE]
> 10 µM

Field entry: CN(C)C/C=C/C(=O)Nc1cc2c(Nc3ccc(F)c(Cl)c3)ncnc2cc1O[C@H]1CCOC1
> 30 µM

Field entry: Cc1ccnc2c1NC(=O)c1cccnc1N2C1CC1
> 10 µM

Field entry: CCC(=O)O[C@]1(C(=O)CCl)[C@@H](C)C[C@H]2[C@@H]3CCC4=CC(=O)C=C[C@]4(C)[C@@]3(F)[C@@H](O)C[C@@]21C [CLOBETASOL PROPIONATE]
> 30 µM

Field entry: CCCc1nc2c(C)cc(-c3nc4ccccc4n3C)cc2n1Cc1ccc(-c2ccccc2C(=O)O)cc1
> 30 µM

----------
# TARGET ENTITY: Amine oxidase [flavin-containing] A (Homo sapiens); also: assay procedure not described here
# Sequence (P21397 whole entry): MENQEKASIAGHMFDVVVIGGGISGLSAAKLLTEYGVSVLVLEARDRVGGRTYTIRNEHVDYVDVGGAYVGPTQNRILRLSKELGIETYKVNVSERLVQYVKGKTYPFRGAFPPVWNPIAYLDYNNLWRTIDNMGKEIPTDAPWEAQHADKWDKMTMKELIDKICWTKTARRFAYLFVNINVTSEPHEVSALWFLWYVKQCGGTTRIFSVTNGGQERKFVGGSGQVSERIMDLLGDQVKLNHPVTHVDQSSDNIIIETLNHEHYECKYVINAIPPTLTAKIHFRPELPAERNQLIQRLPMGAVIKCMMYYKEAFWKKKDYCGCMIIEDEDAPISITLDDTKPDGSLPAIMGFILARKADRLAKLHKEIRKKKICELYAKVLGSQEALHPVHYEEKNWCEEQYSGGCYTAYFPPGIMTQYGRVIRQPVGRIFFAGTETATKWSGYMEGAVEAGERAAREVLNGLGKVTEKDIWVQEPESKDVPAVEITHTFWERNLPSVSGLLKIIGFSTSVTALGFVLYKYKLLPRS
# Type: functional
PROPERTY MEASURED: AC50

Sample Cc1nc(Nc2ncc(C(=O)Nc3c(C)cccc3Cl)s2)cc(N2CCN(CCO)CC2)n1 — what was its AC50?
> 30 µM

Field entry: CC(C(=O)O)c1ccc2c(c1)CC(=O)c1ccccc1S2 (centres undefined)
> 30 µM

Field entry: CC(Cc1cccc(C(F)(F)F)c1)NCCOC(=O)c1ccccc1 (centres undefined)
> 30 µM

Field entry: CC(C)(Oc1ccc(CCNC(=O)c2ccc(Cl)cc2)cc1)C(=O)O [BEZAFIBRATE]
> 10 µM

Field entry: CCCc1nc2c(C)cc(-c3nc4ccccc4n3C)cc2n1Cc1ccc(-c2ccccc2C(=O)O)cc1
> 30 µM

Field entry: Oc1ccc(CCNCCCCCCNCCc2ccccc2)cc1O
> 30 µM

Field entry: C/C=C(/C(=C/C)c1ccc(O)cc1)c1ccc(O)cc1
> 10 µM

Field entry: COc1cc(C(=O)OCc2cccc(COC(=O)c3cc(OC)c(OC)c(OC)c3)n2)cc(OC)c1OC
> 30 µM

Field entry: Clc1ccc(CCC(Cn2ccnc2)Sc2c(Cl)cccc2Cl)cc1 (centres undefined)
> 30 µM
